I'd appreciate it if you could supply inhibition at 0.01 wt% values for the items below.
# System: cultured human fibroblasts
# assay.method.text: Inhibition of lipid peroxide formation in cultured human fibroblasts (TBA method)
# Format: cell-based
# condition.info: Homo sapiens, Fibroblast, light or radiation study, 0.01 wt. % in ethanol, 100 mM porphyrin, UV-A/UV-B 1 J/cm^2, read-out: Inhibition ratio regarding lipid peroxide formation
# Description: Inhibition of lipid peroxide formation Cultured human fibroblasts were combined with 100 mM porphyrin and a test substance (0.01 wt. %, in ethanol). A mixture of UV-A/UV-B rays (1 J/cm^2, measurements performed at 365 nm) was irradiated onto the resultant cell culture using a solar simulator. The fibroblasts were collected after the trypsin treatment, then extracted hydrophobic substances using acetone. The extracted substances were dried under nitrogen to prepare cellular lipid samples. […]
Reply numerically in %, unit not repeated.

Req: Requested read-out inhibition at 0.01 wt%, target or system cultured human fibroblasts, entry CCCCN(CC(O)COC)c1ccc(C)c(C)c1 (stereo not shown) [Compound (32)]
Resp: 54

Req: Input CCCCN(CC(O)COC)c1ccc(OC)cc1 (stereo not shown) [Compound (2)]
Resp: 43

Req: Can you check CCCCCCCCN(CC(O)CO)c1ccc(OC)cc1 (stereo not shown) [Compound (35)] next?
Resp: 56

Req: Repeat with CCCCN(CC(O)COC)c1ccc(C)cc1 (stereo not shown) [Compound (5)]
Resp: 48

Req: Same thing, different compound: CCCCN(CC(O)CO)c1ccc(C)c(C)c1 (stereo not shown) [Compound (34)]
Resp: 52

Req: Try O=C1O[C@H]([C@@H](O)CO)C(O)=C1O [Comparative compound (5), Ascorbic acid, reference compound] next.
Resp: 43

Req: Now give it for CCCCN(CC(O)COC)c1ccccc1 (stereo not shown) [Compound (6)] too.
Resp: 40

Req: What about OCCN(CCO)c1ccccc1 [Compound (36), N-phenyldiethanolamine] ?
Resp: 46

Req: Also Cc1ccc(N(C)CC(O)CO)cc1 (stereo not shown) [Compound (33)] , if possible.
Resp: 47

Req: // repeat for CCCCCCCCN(CC(O)COC)c1ccc(OC)cc1 (stereo not shown) [Compound (3)] and report
Resp: 60

Req: Would you mind doing COCC(O)CN(CC(O)COC)c1ccc(C)cc1 (stereo not shown) [Compound (4)] as well?
Resp: 57

Req: Query Cc1c(C)c2c(c(C)c1O)CCC(C)(CCCC(C)CCCC(C)CCCC(C)C)O2 (stereo not drawn) [Comparative compound (6), α-Tocopherol, reference compound] next
Resp: 42

Req: Next up: COCC(O)CN(C)c1ccc(OC)cc1 (stereo not shown) [Compound (1)]
Resp: 51
